Tested on: rodent lifetime carcinogenesis bioassay, tumor incidence TD50
procedure_details: carcinogenic potency in animals, long-term in vivo studies, CPDB compilation (AID 1745844)
cond: mouse; strain CF-1; females; in feed; site: lung; lesion: several types; types named in the paper; dosed 123 weeks; study length 123 weeks
observed_property: TD50

stdin: Please state recorded TD50 (tested on rodent lifetime carcinogenesis bioassay, tumor incidence TD50) of Clc1ccc(C(c2ccc(Cl)cc2)C(Cl)Cl)cc1
stdout: 39.9 mg/kg/day

----------
System: rodent lifetime carcinogenesis bioassay, tumor incidence TD50
procedure_details: carcinogenic potency in animals, long-term in vivo studies, CPDB compilation (AID 1745844)
cond: mouse; strain B6C3F1; females; in drinking water; site: lung; lesion: alveolar/bronchiolar carcinoma; dosed 100 weeks; study length 104 weeks
Calls of active or inactive are those of the source. No rule for the calls is given here.
observed_property: TD50

stdin: Item under review: Cc1c(N(C)C)c(=O)n(-c2ccccc2)n1C . Reported TD50?
stdout: 6540 mg/kg/day (inactive)

----------
Tested on: rodent lifetime carcinogenesis bioassay, tumor incidence TD50
procedure_details: carcinogenic potency in animals, long-term in vivo studies, CPDB compilation (AID 1745844)
cond: rat; strain Fischer 344; males; by gavage; site: Zymbal's gland; lesion: carcinoma, NOS + squamous-cell carcinoma; dosed 103 weeks; study length 105 weeks
observed_property: TD50

stdin: Item under review: COc1c2occc2cc2ccc(=O)oc12 . Reported TD50?
stdout: 101 mg/kg/day

----------
Test system: rodent lifetime carcinogenesis bioassay, tumor incidence TD50
procedure_details: carcinogenic potency in animals, long-term in vivo studies, CPDB compilation (AID 1745844)
cond: rat; strain Sprague-Dawley albino; females; in feed; site: any site (literature study); lesion: several types; types named in the paper; dosed 52 weeks; study length 52 weeks
observed_property: TD50 (mg/kg/day)
Give bare numbers, in mg/kg/day.

stdin: Item under review: CCN(Cc1cccc(S(=O)(=O)[O-])c1)c1ccc(C(=C2C=CC(=[N+](C)C)C=C2)c2ccc(N(CC)Cc3cccc(S(=O)(=O)O)c3)cc2)cc1 . Reported TD50?
stdout: 660

----------
System: rodent lifetime carcinogenesis bioassay, tumor incidence TD50
procedure_details: carcinogenic potency in animals, long-term in vivo studies, CPDB compilation (AID 1745844)
cond: mouse; strain Swiss; females; i.p.; site: lung; lesion: several types; types named in the paper; dosed 26 weeks; study length 76 weeks
observed_property: TD50

stdin: Item under review: CNNCc1ccc(C(=O)NC(C)C)cc1 . Reported TD50?
stdout: 1.05 mg/kg/day

----------
System: rodent lifetime carcinogenesis bioassay, tumor incidence TD50
procedure_details: carcinogenic potency in animals, long-term in vivo studies, CPDB compilation (AID 1745844)
cond: rat; strain Fischer 344; females; in drinking water; site: liver; lesion: hemangiosarcoma; dosed 45 weeks; study length 126 weeks
observed_property: TD50

stdin: Item under review: O=NN1CCOCC1 . Reported TD50?
stdout: 0.666 mg/kg/day

----------
System: rodent lifetime carcinogenesis bioassay, tumor incidence TD50
procedure_details: carcinogenic potency in animals, long-term in vivo studies, CPDB compilation (AID 1745844)
cond: rat; strain Fischer 344; females; in drinking water; site: mammary tissue, wider than the gland; lesion: fibroma; dosed 104 weeks; study length 104 weeks
observed_property: TD50 (mg/kg/day)
Answers are plain numbers, in mg/kg/day.

stdin: Item under review: C=CC(N)=O . Reported TD50?
stdout: 20.9
